- System: Saccharomyces cerevisiae BY4741 SeMeCo community
- METHOD: z-score of subpopulation abundance vs DMSO median, subpopulation auxotrophic for UM; higher = larger share of this subpopulation than in DMSO controls
- TEST_CONDITIONS: 10 µM; 24 h; SM minimal medium; subpopulation (auxotrophy): UM
Each item that follows carries a reported z-score of subpopulation abundance.
Format: numeric value only, no unit, no commentary.

{"MOLECULE": "CC[N+](C)(C)c1cccc(O)c1 [Edrophonium chloride]", "EXPERIMENTAL_SYSTEM": "Saccharomyces cerevisiae BY4741 SeMeCo community", "z-score of subpopulation abundance": 0.7}
{"MOLECULE": "COC(=O)C1=C(C)NC(C)=C(C(=O)OC(C)C)C1c1cccc2nonc12 (stereo unspecified) [Isradipine]", "EXPERIMENTAL_SYSTEM": "Saccharomyces cerevisiae BY4741 SeMeCo community", "z-score of subpopulation abundance": 1.06}
{"MOLECULE": "CC(C)Cc1ccc(C(C)C(=O)O)cc1 (stereo unspecified) [Ibuprofen Lysine]", "EXPERIMENTAL_SYSTEM": "Saccharomyces cerevisiae BY4741 SeMeCo community", "z-score of subpopulation abundance": -4.66}
{"MOLECULE": "O=C(O)CCC(=O)Nc1ccc(S(=O)(=O)Nc2nccs2)cc1 [Succinylsulfathiazole]", "EXPERIMENTAL_SYSTEM": "Saccharomyces cerevisiae BY4741 SeMeCo community", "z-score of subpopulation abundance": 0.02}
{"MOLECULE": "C#C[C@]1(O)CC[C@H]2[C@@H]3CCC4=CC(=O)CC[C@@H]4[C@H]3C(=C)C[C@@]21CC [Etonogestrel]", "EXPERIMENTAL_SYSTEM": "Saccharomyces cerevisiae BY4741 SeMeCo community", "z-score of subpopulation abundance": 0.08}

# next molecule below
query: Observed z-score of subpopulation abundance on Saccharomyces cerevisiae BY4741 SeMeCo community for O=C(O)c1cc(O)c2c(c1)[C@H]([C@H]1c3cc(C(=O)O)cc(O)c3C(=O)c3c(O[C@@H]4O[C@H](CO)[C@@H](O)[C@H](O)[C@H]4O)cccc31)c1cccc(O[C@@H]3O[C@H](CO)[C@@H](O)[C@H](O)[C@H]3O)c1C2=O [Sennoside A] , please.
result: -0.14
